- assay.notes: Pharmacokinetic interaction study of DSV and TAM/TOH after oral single or co-administration to Wistar rats (UPLC-MS/MS of plasma, NCA)
- Assay type: in vivo
- condition.set: male, Wistar, rat, plasma, po, oral co-administration of DSV 50 mg/kg and TAM 10 mg/kg (TOH as metabolite of TAM); mean ± SD, n = 5
As shown below, each of these compounds has a reported AUC(0-inf) value.

# compound, unit.tag, AUC(0-inf)
data = [
    ("CC/C(=C(\\c1ccc(O)cc1)c1ccc(OCCN(C)C)cc1)c1ccccc1 [TOH, 4-hydroxy tamoxifen]", "ng·h/mL", 4550),
    ("CC/C(=C(\\c1ccccc1)c1ccc(OCCN(C)C)cc1)c1ccccc1", "ng·h/mL", 3510),
    ("COc1c(-c2ccc3cc(NS(C)(=O)=O)ccc3c2)cc(-n2ccc(=O)[nH]c2=O)cc1C(C)(C)C", "ng·h/mL", 4660),
]

* * *

- assay.notes: Stability of DSV, TAM and TOH in rat plasma under storage and treatment conditions
- Assay type: in vitro ADME
- condition.set: Wistar, rat, rat plasma (prepared QC samples in the auto-injector), rat plasma; 10 °C, 56 h; high concentration level (800, 400, 400 ng/mL for DSV, TAM, TOH); six determinations; read-out: Auto-sampler stability, mean recovery (%) ± RSD
measurement.label: recovery at 56 h (%)

# molecule, measurement.label, value.measured
rows = [
    ("COc1c(-c2ccc3cc(NS(C)(=O)=O)ccc3c2)cc(-n2ccc(=O)[nH]c2=O)cc1C(C)(C)C [DSV, Dasabuvir]", "recovery at 56 h", 98.5),
    ("CC/C(=C(\\c1ccccc1)c1ccc(OCCN(C)C)cc1)c1ccccc1 [TAM, Tamoxifen]", "recovery at 56 h", 93.5),
    ("CC/C(=C(\\c1ccc(O)cc1)c1ccc(OCCN(C)C)cc1)c1ccccc1 [TOH, 4-hydroxy tamoxifen]", "recovery at 56 h", 95.2),
]

* * *

- assay.notes: Stability of DSV, TAM and TOH in rat plasma under storage and treatment conditions
- Type: in vitro ADME
- condition.set: Wistar, rat, rat plasma (spiked QC samples), rat plasma; −30 °C, 30 days; high concentration level (800, 400, 400 ng/mL for DSV, TAM, TOH); six determinations; read-out: Long-term stability, mean recovery (%) ± RSD
measurement.label: recovery at 30 days (%)

# molecule, measurement.label, value.measured
data = [
    ("COc1c(-c2ccc3cc(NS(C)(=O)=O)ccc3c2)cc(-n2ccc(=O)[nH]c2=O)cc1C(C)(C)C", "recovery at 30 days", 98.8),
    ("CC/C(=C(\\c1ccccc1)c1ccc(OCCN(C)C)cc1)c1ccccc1", "recovery at 30 days", 97.3),
    ("CC/C(=C(\\c1ccc(O)cc1)c1ccc(OCCN(C)C)cc1)c1ccccc1 [TOH, 4-hydroxy tamoxifen]", "recovery at 30 days", 95.8),
]

* * *

- assay.notes: Pharmacokinetic interaction study of DSV and TAM/TOH after oral single or co-administration to Wistar rats (UPLC-MS/MS of plasma, NCA)
- Format: in vivo
- condition.set: male, Wistar, rat, plasma, po, single oral administration; DSV 50 mg/kg or TAM 10 mg/kg (TOH as metabolite of TAM); mean ± SD, n = 5
Reported values of Tmax for individual entries

# molecule, Tmax [h]
measured = [
    ("COc1c(-c2ccc3cc(NS(C)(=O)=O)ccc3c2)cc(-n2ccc(=O)[nH]c2=O)cc1C(C)(C)C [DSV, Dasabuvir]", 4.95),
    ("CC/C(=C(\\c1ccc(O)cc1)c1ccc(OCCN(C)C)cc1)c1ccccc1 [TOH, 4-hydroxy tamoxifen]", 2.03),
    ("CC/C(=C(\\c1ccccc1)c1ccc(OCCN(C)C)cc1)c1ccccc1 [TAM, Tamoxifen]", 2.03),
]
